System: rodent lifetime carcinogenesis bioassay, tumor incidence TD50
experiment notes: carcinogenic potency in animals, long-term in vivo studies, CPDB compilation (AID 1745844)
applied conditions: rat; strain Fischer 344; males; in feed; site: any site (literature study); lesion: several types; types named in the paper; dosed 12 weeks; study length 103 weeks
parameter measured: TD50 (mg/kg/day)

mol_smiles=OCC(CO)(CBr)CBr observed=6.25

* * *

System: rodent lifetime carcinogenesis bioassay, tumor incidence TD50
experiment notes: carcinogenic potency in animals, long-term in vivo studies, CPDB compilation (AID 1745844)
applied conditions: rat; strain F344/DuCrj; females; in drinking water; site: any site (literature study); lesion: several types; types named in the paper; dosed 100 weeks; study length 100 weeks
Activity calls are given as the source filed them. No rule for the calls is given here.
parameter measured: TD50

mol_smiles=N[C@@H](CC(=O)O)C(=O)O parameter_measured=TD50 observed="8340 mg/kg/day (inactive)"

* * *

Tested on: rodent lifetime carcinogenesis bioassay, tumor incidence TD50
experiment notes: carcinogenic potency in animals, long-term in vivo studies, CPDB compilation (AID 1745844)
applied conditions: mouse; strain Crj:BDF1; females; inhaled; site: lung; lesion: alveolar/bronchiolar adenoma; dosed 104 weeks; study length 105 weeks
Activity calls are given as the source filed them. The rule behind the calls is not given here.
parameter measured: TD50

mol_smiles=CBr experimental_target="rodent lifetime carcinogenesis bioassay, tumor incidence TD50" parameter_measured=TD50 observed="6420 mg/kg/day (inactive)"

* * *

System: rodent lifetime carcinogenesis bioassay, tumor incidence TD50
experiment notes: carcinogenic potency in animals, long-term in vivo studies, CPDB compilation (AID 1745844)
applied conditions: rat; strain MRC-Wistar; males; in drinking water; site: liver; lesion: one or several types; types not named; dosed 39 weeks; study length 85 weeks
parameter measured: TD50

mol_smiles=NC(=O)N(CCO)N=O experimental_target="rodent lifetime carcinogenesis bioassay, tumor incidence TD50" parameter_measured=TD50 observed="2.77 mg/kg/day"
mol_smiles=CCCCN(N=O)C(N)=O experimental_target="rodent lifetime carcinogenesis bioassay, tumor incidence TD50" parameter_measured=TD50 observed="26.1 mg/kg/day"

* * *

System: rodent lifetime carcinogenesis bioassay, tumor incidence TD50
experiment notes: carcinogenic potency in animals, long-term in vivo studies, CPDB compilation (AID 1745844)
applied conditions: rat; strain F344/DuCrj; females; inhaled; site: adrenal gland; lesion: pheochromocytoma; dosed 104 weeks; study length 105 weeks
Active and inactive are the calls of the source. The rule behind the calls is not given here.
parameter measured: TD50

mol_smiles=CBr observed="805 mg/kg/day (inactive)"

* * *

System: rodent lifetime carcinogenesis bioassay, tumor incidence TD50
experiment notes: carcinogenic potency in animals, long-term in vivo studies, CPDB compilation (AID 1745844)
applied conditions: mouse; strain B6C3F1; males; in feed; site: liver; lesion: hepatocellular carcinoma; dosed 79 weeks; study length 79 weeks
parameter measured: TD50 (mg/kg/day)

mol_smiles=CC(C)CCCCCCOC(=O)c1ccccc1C(=O)OCCCCCCC(C)C result_unit=mg/kg/day observed=1460

* * *

Tested on: rodent lifetime carcinogenesis bioassay, tumor incidence TD50
experiment notes: carcinogenic potency in animals, long-term in vivo studies, CPDB compilation (AID 1745844)
applied conditions: rat; strain F344/DuCrj; females; in drinking water; site: tongue; lesion: papilloma; dosed 50 weeks; study length 50 weeks
parameter measured: TD50 (mg/kg/day)

mol_smiles=CCCCN(N=O)C(N)=O result_unit=mg/kg/day observed=13.5

* * *

Test system: rodent lifetime carcinogenesis bioassay, tumor incidence TD50
experiment notes: carcinogenic potency in animals, long-term in vivo studies, CPDB compilation (AID 1745844)
applied conditions: rat; strain Sprague-Dawley; females; inhaled; site: extrahepatic tissue; lesion: angiosarcoma; dosed 52 weeks; study length 131 weeks
parameter measured: TD50 (mg/kg/day)

mol_smiles=C=CCl parameter_measured=TD50 observed=21400

* * *

System: rodent lifetime carcinogenesis bioassay, tumor incidence TD50
experiment notes: carcinogenic potency in animals, long-term in vivo studies, CPDB compilation (AID 1745844)
applied conditions: rat; strain Wistar; males; in feed; site: liver; lesion: nodular hyperplasia; dosed 104 weeks; study length 104 weeks
Calls of active or inactive are those of the source. How the calls were made is not given here.
parameter measured: TD50

mol_smiles=NC1CCCCC1 observed="47000 mg/kg/day (inactive)"

* * *

Test system: rodent lifetime carcinogenesis bioassay, tumor incidence TD50
experiment notes: carcinogenic potency in animals, long-term in vivo studies, CPDB compilation (AID 1745844)
applied conditions: rat; strain Wistar; females; inhaled; site: nose; lesion: carcinoma, in situ; dosed 111 weeks; study length 121 weeks
parameter measured: TD50

mol_smiles=CC=O parameter_measured=TD50 observed="3000 mg/kg/day"

* * *

Test system: rodent lifetime carcinogenesis bioassay, tumor incidence TD50
experiment notes: carcinogenic potency in animals, long-term in vivo studies, CPDB compilation (AID 1745844)
applied conditions: mouse; strain B6C3F1; males; by gavage; site: all sites; lesion: hemangiosarcoma; dosed 103 weeks; study length 105 weeks
parameter measured: TD50

mol_smiles=Nc1ccc(Cl)cc1 observed="89.5 mg/kg/day"

* * *

System: rodent lifetime carcinogenesis bioassay, tumor incidence TD50
experiment notes: carcinogenic potency in animals, long-term in vivo studies, CPDB compilation (AID 1745844)
applied conditions: rat; strain Sprague-Dawley; females; i.p.; site: peritoneum; lesion: fibrosarcoma + mesothelioma, malignant + sarcoma, NOS; dosed 52 weeks; study length 80 weeks
parameter measured: TD50

mol_smiles=COc1cc2c(c3c1c(=O)c1ccccc1n3C)C=CC(C)(C)O2 observed="5.86 mg/kg/day"

* * *

System: rodent lifetime carcinogenesis bioassay, tumor incidence TD50
experiment notes: carcinogenic potency in animals, long-term in vivo studies, CPDB compilation (AID 1745844)
applied conditions: rat; strain Bethesda black; both sexes; in feed; site: liver; lesion: hepatocellular tumor, benign; dosed 104 weeks; study length 104 weeks
parameter measured: TD50

mol_smiles=Cc1cc(C)c(N=Nc2c(O)c(S(=O)(=O)O)cc3cc(S(=O)(=O)O)ccc23)cc1C parameter_measured=TD50 observed="3540 mg/kg/day"

* * *

Tested on: rodent lifetime carcinogenesis bioassay, tumor incidence TD50
experiment notes: carcinogenic potency in animals, long-term in vivo studies, CPDB compilation (AID 1745844)
applied conditions: rat; strain Fischer 344; males; by gavage; site: testis; lesion: interstitial-cell tumor; dosed 98 weeks; study length 104 weeks
parameter measured: TD50 (mg/kg/day)

molecule="c1cc(OCC2CO2)cc(OCC2CO2)c1 (stereo unspecified)" parameter_measured=TD50 observed=2.35

* * *

Test system: rodent lifetime carcinogenesis bioassay, tumor incidence TD50
experiment notes: carcinogenic potency in animals, long-term in vivo studies, CPDB compilation (AID 1745844)
applied conditions: rat; strain F344/DuCrj; females; in drinking water; site: any site (literature study); lesion: one or several types; types not named; dosed 104 weeks; study length 113 weeks
The source made the active and inactive calls. How the calls were made is not given here.
parameter measured: TD50

compound="CC(O)C(=O)O (configuration not stated)" observed="103000 mg/kg/day"
compound=O=C(O)CCC(=O)O observed="4820 mg/kg/day (inactive)"

* * *

Tested on: rodent lifetime carcinogenesis bioassay, tumor incidence TD50
experiment notes: carcinogenic potency in animals, long-term in vivo studies, CPDB compilation (AID 1745844)
applied conditions: rat; strain F344/DuCrj; males; inhaled; site: pituitary gland; lesion: adenoma; dosed 104 weeks; study length 105 weeks
Activity calls are given as the source filed them. The rule behind the calls is not given here.
parameter measured: TD50

mol_smiles=CBr parameter_measured=TD50 observed="31.8 mg/kg/day (inactive)"

* * *

System: rodent lifetime carcinogenesis bioassay, tumor incidence TD50
experiment notes: carcinogenic potency in animals, long-term in vivo studies, CPDB compilation (AID 1745844)
applied conditions: mouse; strain Charles River CD1; males; in feed; site: liver; lesion: hepatocellular carcinoma; dosed 100 weeks; study length 100 weeks
parameter measured: TD50

mol_smiles=COc1nn(CSP(=S)(OC)OC)c(=O)s1 parameter_measured=TD50 observed="21.8 mg/kg/day"

* * *

System: rodent lifetime carcinogenesis bioassay, tumor incidence TD50
experiment notes: carcinogenic potency in animals, long-term in vivo studies, CPDB compilation (AID 1745844)
applied conditions: rat; strain Fischer 344; males; in feed; site: thyroid gland; lesion: follicular-cell adenoma, bilateral + follicular-cell adenoma; dosed 104 weeks; study length 104 weeks
parameter measured: TD50 (mg/kg/day)

mol_smiles=O=C1OC(c2ccc(O)cc2)(c2ccc(O)cc2)c2ccccc21 observed=6990

* * *

Test system: rodent lifetime carcinogenesis bioassay, tumor incidence TD50
experiment notes: carcinogenic potency in animals, long-term in vivo studies, CPDB compilation (AID 1745844)
applied conditions: mouse; strain B6C3F1; males; by gavage; site: subcutaneous tissue; lesion: fibrosarcoma + sarcoma; dosed 103 weeks; study length 104 weeks
parameter measured: TD50 (mg/kg/day)

mol_smiles=O=Cc1ccco1 parameter_measured=TD50 observed=187

* * *

Test system: rodent lifetime carcinogenesis bioassay, tumor incidence TD50
experiment notes: carcinogenic potency in animals, long-term in vivo studies, CPDB compilation (AID 1745844)
applied conditions: mouse; strain NMRI; females; in feed; site: all sites; lesion: lymphoma; dosed 107 weeks; study length 107 weeks
Calls of active or inactive are those of the source. How the calls were made is not given here.
parameter measured: TD50

mol_smiles=O=C(O)c1ccc(N=Nc2ccc(O)c(C(=O)O)c2)cc1 experimental_target="rodent lifetime carcinogenesis bioassay, tumor incidence TD50" parameter_measured=TD50 observed="1200 mg/kg/day (inactive)"
